assay-details: basal HepG2 mitochondrial membrane potential changes, profiling panel, cell-based, JC-1 fluorescence, 24 h, 100 nL compound (AID 1167); note: test concentration not given here
test-context: higher = more signal
quantity-measured: z-score
Give bare numbers.

Cc1ccc(S[C@]2(C(=O)NCCN3CCOCC3)CC(=O)N(Cc3ccccc3Cl)[C@@H]2c2ccc(CO)cc2)cc1 = 0.482
C=CC[C@@]1(C(=O)NCc2ccccc2)N=C(c2ccc(OCCCO)cc2)O[C@@H]1c1ccccc1N=[N+]=[N-] = -0.827
COCCOC(=O)N1C(=O)[C@@]2(c3cc(C#Cc4ccc(OC)cc4)ccc31)[C@H](C(N)=O)[C@H]1C(=O)O[C@H](c3ccccc3)[C@H](c3ccccc3)N1[C@@H]2c1ccccc1OCCO = -1.79

Go through the list and state z-score for each entry.
1. CCCC[C@@H]1C[C@H]1[C@@H](NC(=O)c1ccco1)c1ccc(C(=O)OC)cc1
2. O=C1O[C@H](c2ccccc2)[C@H](c2ccccc2)N2[C@H]1[C@@H](C(=O)N1CCN(c3ncccn3)CC1)[C@]1(C(=O)Nc3ccc(C#CC4=CCCCC4)cc31)[C@H]2c1ccc(O)cc1
3. COC(=O)[C@@]1(Cc2ccc(F)cc2)[C@H]2c3cc(C(=O)N(C)C)n(Cc4ccc(S(C)(=O)=O)cc4)c3C[C@H]2CN1C(=O)c1ccccc1
4. C[N+](C)(C)CCCCNC(=O)[C@H]1C[C@H]2C(=O)N[C@@H](Cc3ccccc3)C(=O)N2[C@H]1c1ccc(O)cc1
5. CCOC(=O)C[C@H]1[C@H](OC(=O)Cc2ccc3c(c2)OCO3)[C@@H](NC(=O)c2ccc(-c3ccccc3)cc2)c2cc(OCCCO)ccc2N1C(=O)Cc1ccc(OC)cc1
6. O=C1c2ccccc2[C@](Cc2ccccc2I)(C(=O)NC2CC2)[C@H](c2ccc(CO)cc2)N1Cc1ccccc1
7. CCOC(=O)[C@H]1C/C=C/C[C@H](C(=O)OCC)C(=O)O[C@H]2[C@@H](OC)O[C@H](CO)[C@@H](OC(=O)Nc3ccc(C#N)cc3)[C@@H]2OC1=O

Result:
1: -2.68; 2: -1.49; 3: 3.32; 4: 0.169; 5: 2.33; 6: 0.478; 7: -2.79
